# testTarget: HCV polymerase 1B (Δ21 NS5B, BK) (Hepatitis C virus genotype 1b)
# Construct: 20 to 50 nM Δ21 NS5B
# Sequence (P26663 2420-2989, stated change not applied): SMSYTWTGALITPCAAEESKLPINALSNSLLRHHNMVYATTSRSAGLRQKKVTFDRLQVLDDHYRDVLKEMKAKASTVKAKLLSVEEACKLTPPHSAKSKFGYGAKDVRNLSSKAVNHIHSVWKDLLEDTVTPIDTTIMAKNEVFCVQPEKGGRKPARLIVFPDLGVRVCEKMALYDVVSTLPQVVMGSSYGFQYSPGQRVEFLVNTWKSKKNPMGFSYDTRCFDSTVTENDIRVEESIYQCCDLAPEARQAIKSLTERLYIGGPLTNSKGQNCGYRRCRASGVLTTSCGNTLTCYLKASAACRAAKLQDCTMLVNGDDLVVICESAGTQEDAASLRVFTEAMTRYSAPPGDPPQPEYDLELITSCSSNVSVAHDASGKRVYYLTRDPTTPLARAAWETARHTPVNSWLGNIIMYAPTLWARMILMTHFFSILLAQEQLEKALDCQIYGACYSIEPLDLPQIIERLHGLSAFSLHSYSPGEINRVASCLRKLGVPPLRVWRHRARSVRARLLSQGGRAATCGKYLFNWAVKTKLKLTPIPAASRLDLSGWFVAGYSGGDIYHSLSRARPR
# experimentNotes: biochemical
measurementLabel: IC50

CNS(=O)(=O)Cc1ccc(NC(=O)c2cc(N3CCC(=O)NC3=O)cc(C(C)(C)C)c2O)cc1 = 0.01 to 0.1 µM

For every record below, what is its IC50?
1. COc1c(C(=O)Nc2cc(CN(C(=O)OC(C)(C)C)S(C)(=O)=O)cs2)cc(N2CCC(=O)NC2=O)cc1C(C)(C)C
2. COc1c(C(=O)Nc2cc(CNS(C)(=O)=O)cs2)cc(N2CCC(=O)NC2=O)cc1C(C)(C)C
3. CC(C)(C)c1cc(NC(=O)c2ccc(NS(C)(=O)=O)cc2)cc(N2CCC(=O)NC2=O)c1
4. COc1c(C(=O)Nc2ccc3c(c2)CS(=O)(=O)C3)cc(N2CCC(=O)NC2=O)cc1C(C)(C)C
5. CC(C)(C)c1cc(C#Cc2ccc(NS(C)(=O)=O)cc2)cc(N2CCC(=O)NC2=O)c1

Solution:
> 1 µM
0.1 to 1 µM
0.1 to 1 µM
> 1 µM
< 0.01 µM
